# target_or_system: T1, human IL-4R on cells (HEK-Blue IL-4/IL-13 cells, TF-1 cells, human PBMCs) (human, UniProt P24394 26-825)
# T1 sequence (looked up): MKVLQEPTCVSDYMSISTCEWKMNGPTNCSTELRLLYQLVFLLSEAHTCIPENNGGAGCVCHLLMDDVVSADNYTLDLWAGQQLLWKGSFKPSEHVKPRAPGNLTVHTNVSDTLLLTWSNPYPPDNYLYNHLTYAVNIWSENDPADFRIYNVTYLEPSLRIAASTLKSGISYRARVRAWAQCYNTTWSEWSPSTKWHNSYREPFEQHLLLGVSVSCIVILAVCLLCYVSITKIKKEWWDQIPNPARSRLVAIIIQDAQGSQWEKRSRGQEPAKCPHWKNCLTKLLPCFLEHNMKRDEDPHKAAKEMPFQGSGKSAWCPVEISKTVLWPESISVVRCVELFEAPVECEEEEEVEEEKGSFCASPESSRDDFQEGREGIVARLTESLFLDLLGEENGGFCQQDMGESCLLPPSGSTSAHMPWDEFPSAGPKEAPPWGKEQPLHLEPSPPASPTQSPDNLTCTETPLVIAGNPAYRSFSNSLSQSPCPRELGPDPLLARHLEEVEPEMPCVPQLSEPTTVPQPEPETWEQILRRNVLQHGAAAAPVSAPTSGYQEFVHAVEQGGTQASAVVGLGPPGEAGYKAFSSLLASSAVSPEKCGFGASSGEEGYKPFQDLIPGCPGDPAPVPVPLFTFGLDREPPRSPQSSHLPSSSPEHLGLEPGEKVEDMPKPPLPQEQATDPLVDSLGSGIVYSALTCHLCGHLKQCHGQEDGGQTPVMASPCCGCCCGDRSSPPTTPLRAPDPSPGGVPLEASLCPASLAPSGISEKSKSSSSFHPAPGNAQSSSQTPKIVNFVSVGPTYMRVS
# assay_remarks: cell-based or functional assay
observed_property: IC50 values in inhibition of IL-13 (SEAP, HEK-Blue IL-4/IL-13 cells) (pM)

# binder, quantity_unit, observed_result
data = [
    ("L28C9-IgG4 (antibody, V domains shown, also called S1E6 light chain mutant L28C9) VH: EVQLVESGGGLVQPGGSLRLSCAVSGFTFSSYAMSWVRQAPGKGLEWVSSITGGGGGIYYADSVKGRFTISRDNSKNTVYLQMNSLRAEDTAVYYCAKDRISITIRPRYFGLDFWGQGTTVTVSS VL: DIVMTQSPLSLPVTPGEPASISCRSSQNVVYGNGYNYLDWYLQKSGQSPQLLIYLGNNVAAGVPDRFSGSGSGTDFTLKISRVEAEDVGFYYCMQSLKAPYTFGQGTKLEIKR", "pM", 12.1),
    ("L18D7-IgG4 (antibody, V domains shown, also called S1E6 light chain mutant L18D7) VH: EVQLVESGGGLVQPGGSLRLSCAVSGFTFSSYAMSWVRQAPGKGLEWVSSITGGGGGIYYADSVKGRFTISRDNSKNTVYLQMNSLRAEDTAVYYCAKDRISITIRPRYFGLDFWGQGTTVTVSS VL: DIVMTQSPLSLPVTPGEPASISCRSSQSLLYSIGYNYLDWYLQKSGQSPQLLIYLGSNRASGVPDRFSGSGSGTDFTLKISRVEAEDVGFYYCMQSFKAPYTFGQGTKLEIKR", "pM", 10.2),
    ("L28G5-IgG4 (antibody, V domains shown, also called S1E6 light chain mutant L28G5) VH: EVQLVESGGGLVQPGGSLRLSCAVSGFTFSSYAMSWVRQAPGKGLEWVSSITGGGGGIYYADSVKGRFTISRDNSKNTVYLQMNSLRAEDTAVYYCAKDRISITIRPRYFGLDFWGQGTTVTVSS VL: DIVMTQSPLSLPVTPGEPASISCRSSRNVIYGNGYNYLDWYLQKSGQSPQLLIYLGNNVAAGVPDRFSGSGSGTDFTLKISRVEAEDVGFYYCMQSLQAPYTFGQGTKLEIKR", "pM", 11.5),
    ("L28F8-IgG4 (antibody, V domains shown, also called S1E6 light chain mutant L28F8) VH: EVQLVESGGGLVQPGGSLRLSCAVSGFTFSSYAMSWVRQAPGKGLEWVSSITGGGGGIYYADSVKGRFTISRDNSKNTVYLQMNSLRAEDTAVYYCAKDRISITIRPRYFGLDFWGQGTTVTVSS VL: DIVMTQSPLSLPVTPGEPASISCRSSQNVVYGNGYNYLDWYLQKSGQSPQLLIYLGTNVAAGVPDRFSGSGSGTDFTLKISRVEAEDVGFYYCMQSLQAPYTFGQGTKLEIKR", "pM", 12.1),
]
